Biological target: UniProt:P00533
Sequence (P00533 672-1210): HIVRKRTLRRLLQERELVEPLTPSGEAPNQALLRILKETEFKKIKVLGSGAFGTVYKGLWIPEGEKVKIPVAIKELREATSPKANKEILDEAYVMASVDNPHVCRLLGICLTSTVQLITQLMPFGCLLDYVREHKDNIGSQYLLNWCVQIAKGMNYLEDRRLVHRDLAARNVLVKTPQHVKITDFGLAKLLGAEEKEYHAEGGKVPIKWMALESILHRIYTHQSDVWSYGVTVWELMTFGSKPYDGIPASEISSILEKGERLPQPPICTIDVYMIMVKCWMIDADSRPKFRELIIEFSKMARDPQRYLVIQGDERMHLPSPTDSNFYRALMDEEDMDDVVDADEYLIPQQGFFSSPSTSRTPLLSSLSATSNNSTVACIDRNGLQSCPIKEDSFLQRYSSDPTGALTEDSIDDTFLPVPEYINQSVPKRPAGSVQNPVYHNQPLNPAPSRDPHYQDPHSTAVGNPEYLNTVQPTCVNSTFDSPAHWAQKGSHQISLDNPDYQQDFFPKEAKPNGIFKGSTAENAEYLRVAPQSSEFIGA
Assay: EGFR kinase inhibition, luciferase-coupled chemiluminescent assay (LCCA)
Conditions: read-out: EGFR IC50
pIC50: −log10 of the molar value.
Reported pIC50 values are given for each entry in this list.
Endpoint label: pIC50

>  <Compound>
COc1cc2c(Nc3cccc(Cl)c3)ncnc2cc1O[C@@H]1CO[C@@H]2[C@H]1OC[C@H]2F [Example 114]

>  <Endpoint label>
pIC50

>  <Recorded value>
> 7.30

$$$$
>  <Compound>
COc1cc2c(Nc3ccc(Br)c(Cl)c3)ncnc2cc1O[C@H]1CO[C@@H]2C3OC(C)(C)O[C@H]3O[C@H]12 (stereo partly drawn) [Example 80]

>  <Endpoint label>
pIC50

>  <Recorded value>
> 7.30

$$$$
>  <Compound>
COc1cc2c(Nc3ccc(Cl)c(Cl)c3)ncnc2cc1OCc1csc2ccc(Cl)cc12 [Example 225]

>  <Endpoint label>
pIC50

>  <Recorded value>
> 7.30

$$$$
>  <Compound>
CCN1CCCC(c2nc(COc3cc4ncnc(Nc5ccc(Cl)c(Cl)c5)c4cc3OC)cs2)C1 (stereo not drawn) [Example 254]

>  <Endpoint label>
pIC50

>  <Recorded value>
> 7.30

$$$$
>  <Compound>
COc1cc2c(Nc3ccc(Cl)c(Cl)c3)ncnc2cc1OCCC1CCCCC1 [Example 185]

>  <Endpoint label>
pIC50

>  <Recorded value>
> 7.30

$$$$
>  <Compound>
COc1cc2c(Nc3ccc(Cl)c(Cl)c3)ncnc2cc1OCc1nc(CN2CCOCC2)cs1 [Example 209]

>  <Endpoint label>
pIC50

>  <Recorded value>
> 7.30

$$$$
>  <Compound>
COc1cc2c(Nc3ccc(Cl)c(Cl)c3)ncnc2cc1OCc1nc(N(C)C)no1 [Example 206]

>  <Endpoint label>
pIC50

>  <Recorded value>
> 7.30

$$$$
>  <Compound>
COc1cc2c(Nc3cccc(F)c3F)ncnc2cc1O[C@@H]1CO[C@@H]2[C@H]1OC[C@H]2F [Example 92]

>  <Endpoint label>
pIC50

>  <Recorded value>
> 7.30

$$$$
>  <Compound>
COc1cc2c(Nc3ccc(F)c(Cl)c3F)ncnc2cc1O[C@@H]1CO[C@@H]2[C@H]1OC[C@H]2F [Example 137]

>  <Endpoint label>
pIC50

>  <Recorded value>
> 7.30

$$$$
>  <Compound>
COc1cc2c(Nc3ccc(Cl)c(Cl)c3)ncnc2cc1OCc1cc(-c2ccccc2)no1 [Example 177]

>  <Endpoint label>
pIC50

>  <Recorded value>
> 7.30

$$$$
>  <Compound>
COc1cc2c(Nc3ccc(F)cc3Br)ncnc2cc1O[C@@H]1CO[C@@H]2[C@H]1OC[C@H]2F [Example 86]

>  <Endpoint label>
pIC50

>  <Recorded value>
> 7.30

$$$$
>  <Compound>
CCN1CCC(c2nc(COc3cc4ncnc(Nc5ccc(Cl)c(Cl)c5)c4cc3OC)cs2)CC1 [Example 242]

>  <Endpoint label>
pIC50

>  <Recorded value>
> 7.30

$$$$
>  <Compound>
CCN1CCN(c2noc(COc3cc4ncnc(Nc5ccc(Cl)c(Cl)c5)c4cc3OC)n2)CC1 [Example 220]

>  <Endpoint label>
pIC50

>  <Recorded value>
> 7.30

$$$$
>  <Compound>
COc1cc2c(Nc3cc(Cl)c(Br)cc3F)ncnc2cc1O[C@@H]1CO[C@@H]2[C@H]1OC[C@H]2F [Example 98]

>  <Endpoint label>
pIC50

>  <Recorded value>
> 7.30

$$$$
>  <Compound>
COc1cc2c(Nc3ccc(Cl)c(Cl)c3)ncnc2cc1OCC1CN(C(C)C)CCCO1 (stereo not drawn) [Example 261]

>  <Endpoint label>
pIC50

>  <Recorded value>
> 7.30

$$$$
>  <Compound>
COc1cc2c(Nc3ccc(Cl)c(Cl)c3)ncnc2cc1OCc1nc(-c2ccc(Cl)cc2)no1 [Example 168]

>  <Endpoint label>
pIC50

>  <Recorded value>
> 7.30

$$$$
>  <Compound>
COc1cc2c(Nc3cc(F)cc(F)c3)ncnc2cc1O[C@@H]1CO[C@@H]2[C@H]1OC[C@H]2F [Example 94]

>  <Endpoint label>
pIC50

>  <Recorded value>
> 7.30

$$$$
>  <Compound>
COc1cc2c(Nc3cccc(C(F)(F)F)c3F)ncnc2cc1O[C@@H]1CO[C@@H]2[C@H]1OC[C@H]2F [Example 123]

>  <Endpoint label>
pIC50

>  <Recorded value>
> 7.30

$$$$
>  <Compound>
COc1cc2c(Nc3cc(Cl)c(Cl)cc3F)ncnc2cc1O[C@H]1CO[C@H]2[C@@H]1OC[C@@H]2OC [Example 69]

>  <Endpoint label>
pIC50

>  <Recorded value>
> 7.30

$$$$
>  <Compound>
COc1cc2c(Nc3ccc(Cl)c(Cl)c3)ncnc2cc1OCCC1OCCCO1 [Example 189]

>  <Endpoint label>
pIC50

>  <Recorded value>
> 7.30

$$$$
>  <Compound>
COc1cc2c(Nc3ccc(Cl)c(Cl)c3)ncnc2cc1OCC(=O)N1CCOCC1 [Example 195]

>  <Endpoint label>
pIC50

>  <Recorded value>
> 7.30

$$$$
>  <Compound>
COc1cc2c(Nc3ccc(Cl)c(Cl)c3)ncnc2cc1OCc1csc(C2CCCCN2)n1 (stereo not drawn) [Example 249]

>  <Endpoint label>
pIC50

>  <Recorded value>
> 7.30

$$$$
>  <Compound>
COc1cc2c(Nc3ccc(Cl)c(Cl)c3)ncnc2cc1OCC1CN(C(C)C)CCO1 (stereo not drawn) [Example 270]

>  <Endpoint label>
pIC50

>  <Recorded value>
> 7.30

$$$$
>  <Compound>
COc1cc2c(Nc3ccc(Cl)c(Cl)c3)ncnc2cc1OCc1csc(COC(=O)c2ccccc2)n1 [Example 245]

>  <Endpoint label>
pIC50

>  <Recorded value>
> 7.30

$$$$
>  <Compound>
COc1cc2c(Nc3ccc(Cl)c(Cl)c3)ncnc2cc1OCC1CN(Cc2ccccc2)CCO1 (stereo not drawn) [Example 147]

>  <Endpoint label>
pIC50

>  <Recorded value>
> 7.30

$$$$
>  <Compound>
COc1cc2c(Nc3ccc(Cl)c(Cl)c3)ncnc2cc1OCc1ccc(Cl)nc1 [Example 171]

>  <Endpoint label>
pIC50

>  <Recorded value>
> 7.30

$$$$
>  <Compound>
COc1ccc(-c2cc(COc3cc4ncnc(Nc5ccc(Cl)c(Cl)c5)c4cc3OC)on2)cc1 [Example 180]

>  <Endpoint label>
pIC50

>  <Recorded value>
> 7.30

$$$$
>  <Compound>
COc1cc2c(Nc3ccc(Cl)c(Cl)c3)ncnc2cc1OCc1ccc2nc(C(F)(F)F)cc(Cl)c2c1 [Example 236]

>  <Endpoint label>
pIC50

>  <Recorded value>
> 7.30

$$$$
>  <Compound>
COc1cc2c(Nc3ccc(Cl)c(Cl)c3)ncnc2cc1OCc1noc(C2CCN(C(=O)OC(C)(C)C)CC2)n1 [Example 197]

>  <Endpoint label>
pIC50

>  <Recorded value>
> 7.30

$$$$
>  <Compound>
CCN1CCN(c2nc(COc3cc4ncnc(Nc5ccc(Cl)c(Cl)c5)c4cc3OC)cs2)CC1 [Example 267]

>  <Endpoint label>
pIC50

>  <Recorded value>
> 7.30

$$$$
